system: Escherichia coli TOP10; assay: shrunken log2 fold change of peptide-encoding DNA abundance (4.5 h post-induction vs induction); higher = less antimicrobial activity (less host growth inhibition); settings: time post-induction: 4.5 h; library: site-saturation at positions 5, 18, 19, 20;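 also: peptides expressed intracellularly from a pBAD plasmid library in pooled LB shake-flask culture, induced with 0.3% L-arabinose, DNA abundance read by NGS, three biological replicates, DESeq2 with apeglm shrinkage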
recorded metric: shrunken log2 fold change

In [3]: df
Out[3]:
                seq_string            recorded_metric  observed_value
0  RRIRDRPPRLPRPRPRPHWQPRP  shrunken log2 fold change          -0.149
1  RRIRHRPPRLPRPRPRPINAPRP  shrunken log2 fold change          0.0354
2  RRIRCRPPRLPRPRPRPDPRPRP  shrunken log2 fold change            0.83
3  RRIRLRPPRLPRPRPRPEHVPRP  shrunken log2 fold change         -0.0237
